Test system: human liver microsomes, metabolic stability half-life
Experiment: NCATS Human Liver Microsomal (HLM) Stability Profiling
Settings: higher = more stable; screened at 1 µM (by protocol)
Method: Assay submitter (PI): Dr. Pranav Shah NIH Center for Advancing Translational Sciences Pharmacokinetic issues were the leading cause of drug attrition, accounting for approximately 40% of all cases before the turn of the century. […] The substrate depletion method, also called the in vitro t1/2 method was used to analyze test compounds. […] Sample quantification and analysis was performed using a previously described method (Shah et al., 2016, Siramshetty et al., 2020). […]
Values of half-life greater than or equal to 20 min map to MET; values below map to NOT MET.

See these solved cases before continuing.
MOLECULE	LABEL_VALUE
Clc1ccc2c(c1)Nc1ccccc1S2	NOT MET
CCN(CC)C(=O)C1CN2CCc3cc(OC)c(OC)cc3C2CC1OC(C)=O (stereo not given)	MET
NC(=O)c1ccccc1Nc1ccnc(Nc2cccc(O)c2)n1	MET

Enquiry: Confirm if half-life reported for the molecule COc1cc(C(=O)NC(c2ccccc2Cl)c2cc(Cl)c3cccnc3c2O)cc(OC)c1OC (stereo not given) is 20 min or above.
Return: MET

Enquiry: Confirm if half-life reported for the molecule CCc1cc(-c2n[nH]c(C)c2-c2ccc3c(c2)OCCO3)c(O)cc1O is 20 min or above.
Return: NOT MET

Enquiry: Confirm if half-life reported for the molecule CCOc1ccc(NS(=O)(=O)c2ccc(N)cc2)nn1 is 20 min or above.
Return: MET

Enquiry: Confirm if half-life reported for the molecule Cc1cncn1CCc1nc2c3ccccc3nc(SCC(=O)Nc3cccc(Cl)c3)n2n1 is 20 min or above.
Return: NOT MET

Enquiry: Confirm if half-life reported for the molecule Cc1ccc(-n2c(SCc3ccccc3F)nc3[nH]ncc3c2=O)cc1C is 20 min or above.
Return: MET

Enquiry: Confirm if half-life reported for the molecule O=C(Nc1cccc(C(F)(F)F)c1)Nc1cc(S(=O)(=O)NC2CC2)ccc1-c1ccsc1 is 20 min or above.
Return: NOT MET

Enquiry: Confirm if half-life reported for the molecule C[C@H]1[C@H](/C=C/c2ccc(-c3ccccc3C#N)cn2)[C@@H]2[C@@H](C)OC(=O)[C@@H]2C[C@@H]1C is 20 min or above.
Return: NOT MET

Enquiry: Confirm if half-life reported for the molecule Nc1ccc2cc3ccc(N)cc3nc2c1 is 20 min or above.
Return: MET

Enquiry: Confirm if half-life reported for the molecule Cc1ccc(S(=O)(=O)Nc2nc3n(n2)C(c2ccc(F)cc2)C=C(c2ccccc2)N3)cc1 (stereo not given) is 20 min or above.
Return: MET

Enquiry: Confirm if half-life reported for the molecule CC1COC2(c3ccccc3Cl)c3cc(Cl)ccc3NC(=O)CN12 (stereo not given) is 20 min or above.
Return: NOT MET

Enquiry: Confirm if half-life reported for the molecule CC[C@]1(O)C[C@@H]2CN(CCc3c([nH]c4ccccc34)[C@@](C(=O)OC)(c3cc4c(cc3OC)N(C)[C@H]3[C@@](O)(C(=O)OC)[C@H](OC(C)=O)[C@]5(CC)C=CCN6CC[C@]43[C@@H]65)C2)C1 is 20 min or above.
Return: MET

Enquiry: Confirm if half-life reported for the molecule Cc1cnc(NC(=O)c2cc(S(=O)(=O)N(C)C)ccc2N2CCCC2)s1 is 20 min or above.
Return: MET

Enquiry: Confirm if half-life reported for the molecule CC(=O)N1CCC(Cc2ccc(C(=O)O)cc2)CC1 is 20 min or above.
Return: MET
